measuredTarget: cynomolgus serum albumin (cynomolgus, UniProt A2V9Z4 25-608)
Sequence (A2V9Z4 25-608 limits assumed): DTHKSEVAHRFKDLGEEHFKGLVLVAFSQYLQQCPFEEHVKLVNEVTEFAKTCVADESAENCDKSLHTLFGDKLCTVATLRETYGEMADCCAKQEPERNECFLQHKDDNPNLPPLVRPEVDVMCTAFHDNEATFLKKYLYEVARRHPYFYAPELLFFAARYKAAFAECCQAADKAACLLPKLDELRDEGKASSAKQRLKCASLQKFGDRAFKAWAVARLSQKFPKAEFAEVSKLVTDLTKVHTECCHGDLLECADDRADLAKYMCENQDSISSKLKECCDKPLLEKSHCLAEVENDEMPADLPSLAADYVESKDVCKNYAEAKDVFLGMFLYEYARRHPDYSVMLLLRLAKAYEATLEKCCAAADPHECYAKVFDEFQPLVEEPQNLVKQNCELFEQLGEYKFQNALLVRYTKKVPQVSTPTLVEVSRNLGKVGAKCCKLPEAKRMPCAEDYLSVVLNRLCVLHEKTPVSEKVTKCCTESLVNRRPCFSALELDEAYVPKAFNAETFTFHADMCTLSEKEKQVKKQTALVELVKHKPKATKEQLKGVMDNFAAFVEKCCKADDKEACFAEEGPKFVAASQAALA
assayNotes: Octet HTX (ForteBio), HCAb on AHC sensor, 1:1 fit
observationType: koff (s⁻¹)
Report as a plain number; the unit s⁻¹ is understood.

Record CNG-HSA-114 (VHH) VHH: KVQLVESGGGLVQPGNSLRLSCAASGFTFSSFGMSWVRQAPGKGLEWVSSISGSGSDTLTADSVKGRFTISRDNSKNTLYLQMNSLRAEDTAVYYCTIGGSLVRSSQGTLVTVSS , field koff: 0.00173

Record CNG-HSA-120 (VHH) VHH: KVQLVESGGGLVQPGGSLRLSCAASGFTFSSFGMSWVRQAPGKGPEWVSSISGSGSDTLYADSVKGRFTISRDNSKNTLYLQMNSLRPEDTAVYYCTIGGSLKQSSQGTLVTVSS , field koff: 0.000422

Record CNG-HSA-119 (VHH) VHH: KVQLVESGGGLVQPGNSLRLSCAASGFTFSSFGMSWVRQAPGKGLEWVSSISGSGSDALYADSAKGRFTISRDNAKTTLYLQMNSLRAEDTAVYYCTIGGSLSPSSQGTLVTVSS , field koff: 0.000864

Record CNG-HSA-103 (VHH) VHH: KVQLVESGGGLVQPGGSLRLSCAASGFTFSSFGMTWVRQAPGKGLEWVSSISGSGSDTLYADSVRGRFTISRDNSKNTLYLQMNSLRPEDTAVYYCTIGGSLSPSSQGTLVTVSS , field koff: 0.000541

Record CNG-HSA-110 (VHH) VHH: KVQLVESGGGLVQPGNSLRLSCAASGFTFSSFGMSWVRQAPGKGLEWVSSISGSGGDTLYADSAKGRFTISRDNSKNTLYLQMNSLRPEDTAVYYCTIGGSLSRSSQGTLVTVSS , field koff: 0.000759

Record CNG-HSA-111 (VHH) VHH: KVQLVESGGGLVQPGGSLRLSCAASGFTFSSFGMSWVRQAPGKGLEWVSSISGSGSDTLYADSVEGRFTISRDNSKNTLYLQMNSLRAEDTAVYYCTIGGSLKQSSQGTLVTVSS , field koff: 0.000884

Record CNG-HSA-115 (VHH) VHH: KVQLVESGGGLVQPGNSLRLSCAASGFTFSSFGMGWVRQAPGKGLEWVSSISGSGSDTLYAPSVKGRFTISRDNSKNTLYLQMNSLRPEDTAVYYCTFAGSLSRSSQGTLVTVSS , field koff: 0.000618

Record CNG-HSA-116 (VHH) VHH: KVQLVESGGGLVQPGGSLRLSCAASGFTFSSFGMSWVRQAPGKGPEWVSSISGSGSDTLYADSVKGRFTISRDNSKNTLYLQMNSLRAEDTAVYYCTIGGSLRASSQGTLVTVSS , field koff: 0.000597

Record CNG-HSA-107 (VHH) VHH: KVQLLESGGGLVQPGGSLRLSCAASGFTFSSFGMSWVRQAPGKGLEWVSSISGSGSDTLYADSVRGRFTISRDNSKNTLYLQMNSLRAEDTAVYYCSIGGSLIRSSQGTLVTVSS , field koff: 0.00182

Record CNG-HSA-117 (VHH) VHH: KVQLVESGGGLVQPGNSLRLSCAASGFTFSSFGMSWVRQAPGKGLEWVSSISGSGSDTLYADSVKGRFTISRDNSKNTLYLQMNSLRAEDTAVYYCTIGGSLTRSSQGTLVTVSS , field koff: 0.000608

Record CNG-HSA-109 (VHH) VHH: KVQLVESGGGLVQPGNSLRLSCAASGFTFGSFGMSWVRQAPGKGPEWVSSISGSGSDTLYADSVKGRFTISRDNSKNTLYLQMNSLRPEDTAVYYCTIGGSLSRSSQGTLVTVSS , field koff: 0.000503

Record CNG-HSA-112 (VHH) VHH: KVQLLESGGGLVQPGGSLRLSCAASGFTFPSFGMSWVRQAPGKGLEWVSSISGSGSDTLYADSVKGRFTISRDNAKTTLYLQMNSLRPEDTAVYYCTIGGSVSKSSRGTLVTVSS , field koff: 0.00115

Record CNG-HSA-102 (VHH) VHH: KVQLLESGGGLVQPGGSLRLSCAASGFTFSSFGMSWVRQAPGKGLEWVSSISGSGSDTLYADSVRGRFTISRDNSKNTLYLQMNSLRPEDTAVYYCTIGGSLSPSSQGTLVTVSS , field koff: 0.000568

Record CNG-HSA-108 (VHH) VHH: KVQLVESGGGLVQPGGSLRLSCAASGFTFGSFGMSWVRQAPGKGLEWVSSISGSGADTLYADSVKGRFTISRDNSKNTLYLQMNSLRAEDTAVYYCTIGGSLRASSQGTLVTVSS , field koff: 0.000794

Record CNG-HSA-101 (VHH) VHH: KVQLVESGGGLVQPGGSLRLSCAASGFTFSSFGMTWVRQAPGKGLEWVSSISGSGSDTLYADSVRGRFTISRDNSKNTLYLQMNSLRAEDTAVYYCTIGGSLSPSSQGTLVTVSS , field koff: 0.000532
